biological target: T1, native human ApoC3 (human, UniProt P02656 21-99); assay: SPR, ApoC3 over captured IgG1, pH 7.4
T1 construct: also called nhuApoC3; native huApoC3
T1 sequence (P02656 21-99): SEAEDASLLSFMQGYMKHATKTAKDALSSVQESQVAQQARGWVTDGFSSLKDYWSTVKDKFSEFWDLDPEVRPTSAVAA
Below, each entry is listed alongside its reported kon.
Output spec: scalar in M⁻¹ s⁻¹, unitless text.

mAb11 (antibody, IgG1, V domains shown, Produced as full length IgG1 (kappa) in ExpiCHO-S cells; also called humanized anti-ApoC3 antibody mAb11) VH: QLVESGGGLVQPGGSLRLSCAASGFTFSTYSMRWVRQVPGKGLEWVSSIHTEGGGTAYRDSVKGRFTISRDNAKNTLYLQMNNLRAEDTAVYYCVIAGYSDWGQGTLVTVSS VL: DIVMTQSPLSLSVTPGEPASISCKTSQGLVHSDGKTYFYWFLQKPGQSPQQLIYQVSNRASGVPDRFSGSGSGTDFTLKISRVEAEDVGVYYCAHGTYYPHTFGQGTRLEIK ... 40400

Turning now to a further binder:
Prompt: Look up kon: mAb7 (antibody, V domains shown, Produced as full length IgG1 (kappa) in ExpiCHO-S cells; also called humanized anti-ApoC3 antibody mAb7) VH: QLVESGGGLVQPGGSLRLSCAASGFTFSTYSMRWVRQAPGKGLEWVSSIHTGGGGTAYRDSVKGRFTISRDNAKNTLYLQMNNLRAEDTAIYYCVIAGYSDWGQGTLVTVSS VL: DIVMTQSPLSLPVTPGESASISCKTSQGLVHSDGKTYFYWFLQKPGQSPQQLIYQVSNRASGVPDRFSGSGSGTDFTLKISRVKAEDAGVYYCAHGTYYPHTFGQGTRLEIK
Completion: 48500
